Tested on: SNB-75 CNS
Experiment: NCI tumour cell line growth inhibition, 48 h
RECORDED METRIC: TGI (µM)

{"COMPOUND": "NC1CC(=O)c2ccccc21 (configuration not stated)", "ASSAY TARGET": "SNB-75 CNS", "RECORDED METRIC": "TGI", "REPORTED RELATION": ">", "RESULT VALUE": 100}
{"COMPOUND": "CCc1cccc(C)c1NC(=O)CCc1nnc(SC)o1", "ASSAY TARGET": "SNB-75 CNS", "RECORDED METRIC": "TGI", "REPORTED RELATION": ">", "RESULT VALUE": 100}
{"COMPOUND": "O=C(O)CCC[C@]1(O)O[C@@]2(CCCC2=O)[C@]2(O)CCC[C@@]21O", "ASSAY TARGET": "SNB-75 CNS", "RECORDED METRIC": "TGI", "REPORTED RELATION": ">", "RESULT VALUE": 100}
{"COMPOUND": "COC(=O)C(C)(C)NC(=O)C(Cc1ccccc1)Nc1ncnc2c1ncn2-c1ccc(OC)cc1 (configuration not stated)", "ASSAY TARGET": "SNB-75 CNS", "RECORDED METRIC": "TGI", "REPORTED RELATION": "=", "RESULT VALUE": 69.1}
{"COMPOUND": "COC(=O)CNC(=O)CCSc1nnc(COc2ccc(Cl)cc2)n1-c1ccccc1", "ASSAY TARGET": "SNB-75 CNS", "RECORDED METRIC": "TGI", "REPORTED RELATION": "=", "RESULT VALUE": 40.7}
{"COMPOUND": "COc1c(O)ccc(C2=Cc3ccc(O)cc3OC2)c1OC", "ASSAY TARGET": "SNB-75 CNS", "RECORDED METRIC": "TGI", "REPORTED RELATION": ">", "RESULT VALUE": 58.3}
{"COMPOUND": "CCC1(CN(C)C)CC/C(=C\\c2ccc(OC)cc2)C1=O (configuration not stated)", "ASSAY TARGET": "SNB-75 CNS", "RECORDED METRIC": "TGI", "REPORTED RELATION": ">", "RESULT VALUE": 100}
{"COMPOUND": "N=C(N)c1ccc(-c2ccc(-c3cccs3)o2)cc1", "ASSAY TARGET": "SNB-75 CNS", "RECORDED METRIC": "TGI", "REPORTED RELATION": "=", "RESULT VALUE": 3.5}
{"COMPOUND": "CNC[C@@H](NC(=O)c1ccc(-c2nc([C@H]3CC[C@H](O)[C@@H](F)C3)cnc2N)cc1F)c1cc(F)cc(Br)c1", "ASSAY TARGET": "SNB-75 CNS", "RECORDED METRIC": "TGI", "REPORTED RELATION": "=", "RESULT VALUE": 23.5}
{"COMPOUND": "O=C1C(=C2SC(c3ccccc3)(c3ccccc3)c3ccccc32)C(=O)c2ccccc21", "ASSAY TARGET": "SNB-75 CNS", "RECORDED METRIC": "TGI", "REPORTED RELATION": ">", "RESULT VALUE": 100}
{"COMPOUND": "C=C[C@]1(C)C[C@@H](OC(=O)CO)[C@@]2(C)[C@H](C)CC[C@]3(CCC(=O)[C@H]32)[C@@H](C)[C@@H]1O", "ASSAY TARGET": "SNB-75 CNS", "RECORDED METRIC": "TGI", "REPORTED RELATION": ">", "RESULT VALUE": 100}
{"COMPOUND": "CC(=O)Nc1ccc(S(=O)(=O)/N=C2\\C=CC(=O)c3ccccc32)cc1", "ASSAY TARGET": "SNB-75 CNS", "RECORDED METRIC": "TGI", "REPORTED RELATION": "=", "RESULT VALUE": 14.1}
{"COMPOUND": "CC1[C@@H]2CC=C3C4CCC5Cc6nc7c(nc6C[C@@]5(C)C4CC(=O)[C@]32CO[C@@]1(O)C(O)CC(C)(C)O)CC1CCC2C3=C[C@H]4O[C@@]5(O[C@@](C)(CO)C[C@@H]5O)C(C)[C@@]4(O)[C@]3(C)[C@@H](O)CC2[C@]1(C)C7 (some centres not stated)", "ASSAY TARGET": "SNB-75 CNS", "RECORDED METRIC": "TGI", "REPORTED RELATION": "=", "RESULT VALUE": 0.00313}
{"COMPOUND": "CC1(C)C2CCC(=O)C1C(OCc1ccccc1)C2 (configuration not stated)", "ASSAY TARGET": "SNB-75 CNS", "RECORDED METRIC": "TGI", "REPORTED RELATION": ">", "RESULT VALUE": 100}
{"COMPOUND": "O=[N+]([O-])c1ccc2c3c1[C@H]1O[C@H]1c1cccc(c1-3)[C@@H]1O[C@H]21", "ASSAY TARGET": "SNB-75 CNS", "RECORDED METRIC": "TGI", "REPORTED RELATION": "=", "RESULT VALUE": 4.1}
{"COMPOUND": "CC(C)CNC(=O)c1ccc(NC(=O)N(CC(C)C)C(=O)c2ccc(N)c(OCCCN)c2)c(OCCCN=C(N)N)c1", "ASSAY TARGET": "SNB-75 CNS", "RECORDED METRIC": "TGI", "REPORTED RELATION": ">", "RESULT VALUE": 62.5}
{"COMPOUND": "CC(CO)(CO)N1C(=O)C2C3c4ccccc4C(c4ccccc43)C2C1=O (configuration not stated)", "ASSAY TARGET": "SNB-75 CNS", "RECORDED METRIC": "TGI", "REPORTED RELATION": ">", "RESULT VALUE": 100}
